The origin of these recorded values is the supplement of paper PMC9170038.

tested on: K4 kissing-loop RNA reporter; assay: apparent KD of K4 kissing-loop reporter; higher = weaker reporter binding; settings: Eterna round: R107; input ligand: theophylline 20 uM
QUANTITY KIND: apparent KD of K4 kissing-loop reporter
Kindly write the number and append the unit.

Past entries and their recorded results:
SEQUENCE CODE | MEASURED RESULT
AGAAGAGUGAUGUUCUUCUAUAUCUCAGAAGGAGCGACAUUAAUGUCAGGUAGGUCGCUGAGAUGAAAUCUCACACAGAUCUUGG [Arg A SS t8a] | 178 nM
CCGUGGAGUGAUGUUCCACGUAAUACGGAUACCAGCUUUGCCAAAGGCCCUUGGCAGCCGCACGUUGCAGUGAUGUUGUGGCGCG [Same State Theophylline A G8] | 162 nM

# ---- query sequence ----
Query block: Given the entry ACCUACGAUCACAAUAGUGAUUGUAGGAACUAGGAUAUGCUGAAAAGCAGAAGGAGUGAUGUUCCGUCAUGAAUAACAUGACAAA [FmnAX 5 #OpenEnded #K4Late #CoaxialStacking] , what apparent KD of K4 kissing-loop reporter was observed with K4 kissing-loop RNA reporter?
Result block: 594 nM

---

test system: MS2 coat protein; experiment: apparent KD of MS2 coat protein; higher = weaker reporter binding; details: Eterna round: R107; input ligand: arginine 13.2 mM
QUANTITY KIND: apparent KD of MS2 coat protein (nM)
Provide the reading as a plain figure in nM.

SEQUENCE CODE | UNITS LABEL | MEASURED RESULT
AGACUGUCUUCGGACAGUCCGGACAGCCCGCGAGGACCGGUACGGCCGCCACUCGCACGAGGAUCACCCGUGUGAGGCUGUCCGA [Omei Tryp A Exc A v2] | nM | 9.87
AAACUGGGUGUAAAAUAAAUAAUCACUGAUACCAGACUAUUUUAUGUCCCUUGGCAGCAGAAACAUGAGGAUCACCCAUGUAAUA [JR_Nu_ExcTheophyA_Sub025] | nM | 21.2
UGUAACAUGAGGAUCACCCAUGUGAGUGAUACCAGACUAGUAUUAGUCCCUUGGCAGCACGUUGGGCGAGUGUAUAGUCUAUGCG [Same State - Theophylline A (Freestyle 14)] | nM | 89.6
UUAACGAGCUGAAGGAGCGCUCCUCAACAACAUGAGGAUCACCCAUGUACACAUAAUAGGGAGCAGGUAGGUCGCAGCAGGAUGG [ss-argB-?] | nM | 17.4
ACCUUACAUGAGGAUCACCCAUGUCGUGAUACCAGAAACCACGUAUUCCCUUGGCAGCACACCCGUGAUGAGAUUGUCGGUUUUG [theeternabot_sameState_MS2_Theo_A_43] | nM | 42.2

Below: the item to evaluate.
Query block: Short answer please: apparent KD of MS2 coat protein, MS2 coat protein, entry UUACAUGAGGAUCACCCAUGUCAUAAUGAUACCAGAUAGUUGAUGAUCCCUUGGCAGCAUAGUACCUAGACAUGUGAGUCAUAGG [Ab]
Result block: 116

---

Below: a set of entries, each annotated with reported apparent KD of K4 kissing-loop reporter.
tested on: K4 kissing-loop RNA reporter; assay: apparent KD of K4 kissing-loop reporter; higher = weaker reporter binding; conditions: Eterna round: R107; input ligand: none;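 also: bound reporter read as fluorescence of individual clusters on recovered sequencing chips by microscopy, with normalized cluster intensities fitted with a binding model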
Report the value in nM with no unit label.

SEQUENCE CODE | UNITS LABEL | apparent KD of K4 kissing-loop reporter
CAUACGCAUGGAGGAUAUGAGAUUUCUCAUAUUAUUUAUUAUUCUCAGUGAUGUUGGGAUUUAAACUCAGAAGGCCAUGUGUAUG [Ex FMN B 8] | nM | 175
UAUAUAUGAUGUGAUACCAGUGAAAAGCCAGUGAUGUUGGUAGAACUGGUAUAUAAAUAACACCCUUGGCAGCACAAUCACGUAU [whbob_Ex_Theo_B_sa96] | nM | 147
UAGCUCUACAGAAGGAGCGACGUUCUUAGACAGUGAUGUUGUCUAUAGUGAAUAUAGGAACGUCAGGUAGGUCGCUGUAGAGCUA [Arg B SS t11] | nM | 200
AAGUGUGUGGCGGCCGCCACUAGAAUCCAGUGAUGUUGGAGUUAUCAUGUAAAUGAUAAUCAACAUAGGACCGGGCCAUAUAGAA [Same State - Tryptophan B (Freestyle 8)] | nM | 701
UAAUAUCAACUUGUAGGAGUGAUGUUCCGCCGAGGACCGGUACGGCCGCCACUCGACAAAAUCUCAGUGUGGUACCUAGGAAUUU [theeternabot_exclusion_KL_Trp_A_24] | nM | 374

Could you now consider this next sequence?
Query block: Item under review: UUAGAGAUCUCAGGAUAUCAGUGAUGUUGUAAUCCAGAUCUGAGAUAGAAUUCUAUCUCAGAUCAAUGAGAAGGGAGAUCUCAUU [AK4.2 Exc FMN B] . Reported apparent KD of K4 kissing-loop reporter?
Result block: 723
